- Test system: OSA-CL osteosarcoma cells
- procedureDetails: Cell confluence assay in OSA-CL osteosarcoma cells
- Type: cell-based
- conditionSet: 72 hour time point, read-out: IC50
- Description: A cell confluence assay was performed to further assess the cytotoxicity of PFI-63 in OSA-CL osteosarcoma cells. Confluence data was collected via photographic images of cells treated with PFI-63 at the following time points: 24 hours, 48 hours, 72 hours, 96 hours and 120 hours. Exemplary dose response curves at 72 hours are presented as FIGS. 59 and 60 for PFI-63 and PFI-90 respectively.
Parameter: IC50. Scope: all listed entries.
Remember to quote the unit after the number.

• Cc1cc(C)cc(C(=O)NNC(=O)c2ccccn2)c1 = 7.57 µM

Here is the next item to consider.
Q: Any idea what its IC50 is? The compound is O=C(NNc1ccccn1)c1ccccn1
Result: 1.9 µM

---

- Tested on: PAX3-FOXO1 fusion transcription factor
- procedureDetails: RH4 ALK-Luc luciferase reporter assay (PAX3-FOXO1 super enhancer activity)
- Assay type: cell-based, human
- conditionSet: RH4 ALK-Luc reporter; 1 μM
endpoint: Avg Absorbance @ 1 μM, ALK-Luc
Quick one: just the number, no unit, thanks!

Q: Please look up its Avg Absorbance @ 1 μM, ALK-Luc: CS(=O)(=O)NCCc1ccc(C(=O)NNC(=O)c2ccccn2)cc1
Result: 99.7

Q: Looking for the measured Avg Absorbance @ 1 μM, ALK-Luc of Cc1cc(C)cc(OCC(=O)NNC(=O)c2ccccn2)c1 , can you help?
Result: 99.4

Q: Look up Avg Absorbance @ 1 μM, ALK-Luc: Cc1cc(C)cc(C(=O)NNC(=O)c2ccc(O)cc2)c1
Result: 97.7

Q: Which value of Avg Absorbance @ 1 μM, ALK-Luc has been reported for O=C(Cc1ccc(Cl)cc1)NNC(=O)c1ccccn1 in the records?
Result: 97.8

Q: I would be grateful if you could share the reported Avg Absorbance @ 1 μM, ALK-Luc for Cc1cc(C)cc(C(=O)NNC(=O)c2ccccn2)c1 .
Result: 91.4

Q: Reported Avg Absorbance @ 1 μM, ALK-Luc, compound NNC(=O)c1cccc(C(=O)NN)n1 : ____
Result: 91.6

Q: Name the reported Avg Absorbance @ 1 μM, ALK-Luc value associated with the compound NNC(=O)c1ccc(C(=O)NN)o1
Result: 97.0

---

- Tested on: PAX3-FOXO1 fusion transcription factor
- procedureDetails: RH4 ALK-Luc luciferase reporter assay (PAX3-FOXO1 super enhancer activity)
- Assay type: cell-based, human
- conditionSet: RH4 ALK-Luc reporter; 1 μM
Each entry below carries its reported Avg Absorbance @ 1 μM, ALK-Luc.
// return just the number, without any unit appended

Look over these answered cases.
- CCCC(=O)NNC(=O)c1ccccn1: 102.4
- Cc1cccc(C(=O)NNC(=O)c2cccc(C)c2)c1: 94.6
- O=C(NNc1ccccn1)c1ccccn1: 55.9

Q: // query Avg Absorbance @ 1 μM, ALK-Luc value for entry O=CNNC(=O)c1cnccn1
Result: 95.8

Q: Find the recorded Avg Absorbance @ 1 μM, ALK-Luc belonging to O=CNNC(=O)c1ccccn1 and report it.
Result: 99.7

Q: Dear colleague, I am looking for the recorded Avg Absorbance @ 1 μM, ALK-Luc of the following molecule: CCC(=O)NNC(=O)c1ccccn1
Result: 104.3

---

- System: PAX3-FOXO1 fusion transcription factor
- procedureDetails: RH4 ALK-Luc luciferase reporter assay (PAX3-FOXO1 super enhancer activity)
- Assay type: cell-based, human
- conditionSet: RH4 ALK-Luc reporter; 1 μM
- Experimental: The screen was performed using two derivatives of RH4 FP-RMS cells: • (1) “ALK-Luc cells”—RH4 cells expressing a pGreenFire green fluorescent protein (GFP)-luciferase reporter (SEQ ID NO: 1) controlled by the PAX3-FOXO1-dependent intronic ALK super enhancer (for reporting on PAX3-FOXO1 activity) (FIGS. 1 and 2); and • (2) “CMV-Luc cells”—control RH4 cells in which the reporter is transcribed from a constitutively active cytomegalovirus (CMV) promoter. […]
Entries and their measured Avg Absorbance @ 1 μM, ALK-Luc follow.
Answer with a number only.

Example results:
* Cc1nc(C)c(C(=O)NN)cc1C(=O)NN [PFI-78] | 100.3
* Cc1nc(C)c(C(=O)NNC(=O)c2ccccc2)cc1C(=O)NNC(=O)c1ccccc1 [PFI-75] | 100.2
* CC(=O)NNC(=O)c1cnccn1 [PFI-76] | 105.6
* Cc1cccc(C(=O)NNC(=O)c2ccccc2)c1 [PFI-73] | 98.3
* CC(C)CC(=O)NNC(=O)c1ccco1 [PFI-89] | 95.1
* CC(=O)NNC(=O)c1ccccn1 [PFI-68] | 95.0
* COCc1cccc(C(=O)NNC(=O)c2ccccn2)c1 [PFI-87] | 115.5
* O=C(NNC(=O)c1ccccn1)c1ccccc1 [PFI-65] | 103.5

Q: For the compound shown here, CCC(CC)C(=O)NNC(=O)c1ccccn1 [PFI-81] , give the reported Avg Absorbance @ 1 μM, ALK-Luc.
Result: 97.7

Q: Return reported Avg Absorbance @ 1 μM, ALK-Luc; argument: NNC(=O)c1ccc(C(=O)NN)nc1 [PFI-71]
Result: 100.1
